# key: entry, value: solubility
# Test Description: Compound solubility in water
# Type: physicochemical
# Conditions: read-out: Solubility in H2O
Report the figure in µM without appending any unit label.

Record excerpt, results attached:
Cn1c(=O)oc2cc(N3CC(C)(C)N(C(=O)NCCCCc4ccccc4)CC3=O)ccc21 [Example 65] | 18.9
Cn1c(=O)oc2cc(N3CCN(C(=O)NCCc4ccccc4)C(C)(C)C3)ccc21 [Example 51] | 0.9
CN1CCN(C(=O)NCCCCc2ccccc2)C(c2ccc3c(c2)oc(=O)n3C)C1 (centres unmarked) [Example 40] | 224
Cn1c(=O)oc2cc(C3CCN(C(=O)NCCc4ccccc4)C(C)(C)C3)ccc21 (centres unmarked) [Example 25] | 26
CN(C)CCn1c(=O)oc2cc(N3CCN(C(=O)NCCCCc4ccccc4)CC3)ccc21 [Example 47] | 250

Request: Would you kindly share the measured solubility for Cn1c(=O)oc2cc(C3COCC(C)(C)N3C(=O)NCCCCc3ccccc3)ccc21 (centres unmarked) [Example 42] ?
Response: 14.8

Request: Return reported solubility; argument: O=C(NCCCCc1ccccc1)N1CCC(c2ccc3[nH]c(=O)oc3c2)CC1 [Example 1]
Response: 2.4

The values you see were collected from patent US20220402901A1.
